Answer each item with its documented FACS MFI.
Target: T1, mouse CD276 protein (mouse, UniProt Q8VE98 29-316)
T1 construct: whole, on cells; also called mCD276; CHO-S-mCD276
T1 sequence (looked up): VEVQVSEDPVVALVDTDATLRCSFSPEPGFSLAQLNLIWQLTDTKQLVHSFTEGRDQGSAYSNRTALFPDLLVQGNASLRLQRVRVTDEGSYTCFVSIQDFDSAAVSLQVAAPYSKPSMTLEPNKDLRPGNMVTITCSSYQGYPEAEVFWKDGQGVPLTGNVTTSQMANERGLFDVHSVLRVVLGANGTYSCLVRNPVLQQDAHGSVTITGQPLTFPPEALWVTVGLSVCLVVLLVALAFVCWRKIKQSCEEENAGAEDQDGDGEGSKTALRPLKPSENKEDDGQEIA
Experiment: FACS on CHO-S-mCD276 cells
Just the number, please, no unit after it.

Consider the binder shown here: 6-H11-G5-D8 (antibody, V domains shown, mouse monoclonal antibody (hybridoma)) VH: EVQLQESGPELVKPGTSVKLSCKASGYTFTSYDINWVRQRPEQGLEWIGWIFPGNGDTYYNEKFKGKATLTSDKSSSTAYMQLSRLTSEDSAVYFCARDLRLGTFDYWGQGTTLTVSS VL: QIVLTQSPEIMSASPGEKVTMTCSASSSVSYIHWYQQKSGTSPKRWIYDTSKLASGVPARFSGSGSGTSYSLTIRSMEAEDAATYYCQQGSSNPRTFGGGTKLELK What is its recorded FACS MFI?
1360

Consider the binder shown here: 13-E4-G9-A4 (antibody, V domains shown, mouse monoclonal antibody (hybridoma)) VH: EVMLVESGGGLVKPGGSLKFSCAASGFTFITYAMSWVRQTPEKRLEWVATISGGGIDTYYPDSVKGRFTISRDNAKNTLYLQVNSLRSEDTAMYYCTRQGSQGWGAMDYWGQGTSVTVSS VL: QIVLTQSPPIMSASPGERVTMTCRASSRVSFMHWYQQKSGTSPRRWIYETSKLASGVPDRFSGSVSGTSYSLTISSMEAEDAATYYCQQWSSNPLTFGAGTKLELK What is its recorded FACS MFI?
1370

Consider the binder shown here: 3-G7-D8-D3 (antibody, V domains shown, mouse monoclonal antibody (hybridoma)) VH: QVQLQQSGAELARPGTSVKLSCKASGYTFTTYWIQWVKQRPGQGLEWIGAIYPGDGDTRYTQKFKGKATLTADKSSSTAYMQLSTLASEDSAVYYCARPYDGYYIDYPMDSWGQGTSVTVSS VL: QIVLTQSPAIMSASPGEKVTMTCSASSRINYMHWYQQKPGTSPIIWIYDTSKLASGVPARFSGSGSGTSYSLTISSMEAEDAATYYCHQRSSYPFTFGSGTKLEIK What is its recorded FACS MFI?
1290

Consider the binder shown here: 3-C2-C3-E7 (antibody, V domains shown, mouse monoclonal antibody (hybridoma)) VH: EVQLQQSGPELVKPGASVKISCKTSGYTFTENTMHWVKQSHGKRLEWIGGINPNTGGTTYNQKFKGKATLTVDKSSSTAYMELRSLTSEDSAVYYCARRGTNWEHWYFDVWGAGTTVTVSS VL: QIVLTQSPAIMSASPGEKVTMTCSASSSVSYMHWYQQKSGTSPKRWIYDTSKLASGVPARFSGSGSGTSYSLTISSMEAEDAATYYCQQWSSNPLTFGAGTKLELK What is its recorded FACS MFI?
2770
